B1: tRNA (parent)
chain: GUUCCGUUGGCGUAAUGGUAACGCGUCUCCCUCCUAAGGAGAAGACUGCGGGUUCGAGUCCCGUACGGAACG

- Variants of: B1
- assayExplanation: yeast fitness relative to wild type (ratio to wild type); higher = fitter; tRNA-Arg(CCU), competitive growth, 37 C, YPD
Variants at the floor of the assay were thinned out.
Recorded yeast fitness for the following variants
Kindly provide the number alone.

Below: 5 variants and their reported yeast fitness.
>>> df
                    variant  resultvalue
0                 A20C C30G        0.612
1            A20G C31U C46G        0.649
2  G10C C24U C34U A36U C46A        0.505
3                 G67C G68U        0.676
4       A42U C61G A65C C66G         0.89

Query string: Item C22U C60G has what recorded yeast fitness?
Result string: 0.688

Query string: Same lookup for U3A G17A C22U , please.
Result string: 0.559

Query string: Same lookup for U28C A37U A40U C49G A57U G68C A70G , please.
Result string: 0.624

Query string: Same lookup for C24U C49G , please.
Result string: 0.724

Query string: Same lookup for C34A A45C , please.
Result string: 0.675

Query string: Same lookup for C46U C49A C55U , please.
Result string: 0.678
